target: Metabotropic glutamate receptor 7 (Rattus norvegicus, UniProt P35400); assay: Negative allosteric modulation of rat mGlu7 receptor expressed in HEK cells co-expressing Galpha15 assessed as reduction in calcium mobilization incubated for 142 secs prior to glutamate addition and after 120 secs treated with L-AP4 and measured after 40 secs by Fluo-4 AM dye based fluorescence assay
Sequence (P35400 whole entry): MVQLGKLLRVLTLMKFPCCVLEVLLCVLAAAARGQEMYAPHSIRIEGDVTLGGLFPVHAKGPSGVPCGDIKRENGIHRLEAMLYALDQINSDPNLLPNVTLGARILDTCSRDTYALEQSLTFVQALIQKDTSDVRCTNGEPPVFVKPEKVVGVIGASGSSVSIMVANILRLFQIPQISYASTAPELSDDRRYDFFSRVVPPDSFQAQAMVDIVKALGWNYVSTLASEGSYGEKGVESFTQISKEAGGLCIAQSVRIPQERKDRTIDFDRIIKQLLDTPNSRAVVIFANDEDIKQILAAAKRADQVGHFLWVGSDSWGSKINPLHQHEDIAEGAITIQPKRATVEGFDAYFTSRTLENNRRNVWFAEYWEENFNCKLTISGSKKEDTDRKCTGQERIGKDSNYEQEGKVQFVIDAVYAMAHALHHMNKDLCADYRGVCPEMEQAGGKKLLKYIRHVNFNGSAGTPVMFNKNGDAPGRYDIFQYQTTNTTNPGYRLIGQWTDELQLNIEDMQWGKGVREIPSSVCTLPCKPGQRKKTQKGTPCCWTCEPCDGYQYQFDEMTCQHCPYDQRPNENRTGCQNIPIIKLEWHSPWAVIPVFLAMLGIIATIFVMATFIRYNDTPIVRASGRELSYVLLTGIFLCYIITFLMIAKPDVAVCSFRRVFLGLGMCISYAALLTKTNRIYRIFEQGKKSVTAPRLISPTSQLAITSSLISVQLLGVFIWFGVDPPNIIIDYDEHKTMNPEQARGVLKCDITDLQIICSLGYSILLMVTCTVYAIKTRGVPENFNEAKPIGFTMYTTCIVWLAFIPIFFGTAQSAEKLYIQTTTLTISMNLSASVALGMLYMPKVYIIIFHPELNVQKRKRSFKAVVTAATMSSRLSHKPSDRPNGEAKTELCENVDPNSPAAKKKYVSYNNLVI
measured-parameter: pIC50
Scale for pIC50: -log10 of concentration given in mol/L; no unit attached.

Input: Identify measured pIC50 corresponding to CCOC(=O)c1cnc2c(OC)cccc2c1-c1cnc(-c2ccccc2OC)cn1
Output: 6.27

Input: Identify measured pIC50 corresponding to CCOC(=O)c1cnc2c(OC)cccc2c1N1CCN(c2ccccc2OC)C(C)C1 (racemic)
Output: 5.89

Input: Identify measured pIC50 corresponding to CCOC(=O)c1cnccc1N1CCN(c2ccccc2OC)CC1
Output: 5.38

Input: Identify measured pIC50 corresponding to CCOC(=O)c1cnc2c(OC)cccc2c1-c1ccc(-c2ccccc2OCC)nc1
Output: 6.43

Input: Identify measured pIC50 corresponding to CCOC(=O)c1cnc2c(OC)cccc2c1N1CCN(c2nccnc2OC)CC1
Output: 5.52

Input: Identify measured pIC50 corresponding to CCOC(=O)c1cnc2c(OC)cccc2c1N1CCN(c2ccc(OC)cc2OC)CC1
Output: 5.72

Input: Identify measured pIC50 corresponding to CCOC(=O)c1cnc2c(OC)cccc2c1N1CCN(c2ccccc2OCC)CC1
Output: 5.29

Input: Identify measured pIC50 corresponding to CCOC(=O)c1cnc2c(OC)cc(OC)cc2c1N1CCN(c2ccccc2OC)CC1
Output: 6.17

Input: Identify measured pIC50 corresponding to CCOC(=O)c1cnc2c(OC)cccc2c1N(C)CCN(C)c1ccccc1OC
Output: 5.36

Input: Identify measured pIC50 corresponding to CCOC(=O)c1cnc2c(OC)cccc2c1N1CCN(c2cccnc2OC)CC1
Output: 5.82

Input: Identify measured pIC50 corresponding to CCOC(=O)c1cnc2c(OC)cccc2c1-c1ccc(-c2ccccc2OC)nc1
Output: 6.22

Input: Identify measured pIC50 corresponding to CCOC(=O)c1cnc2c(OC)cccc2c1-c1ccc(-c2ccccc2OC(C)C)nc1
Output: 5.82

Input: Identify measured pIC50 corresponding to CCOC(=O)c1cnc2c(OC)cccc2c1N1CCN(c2c(OC)cccc2OC)CC1
Output: 6.10

Input: Identify measured pIC50 corresponding to CCOC(=O)c1cnc2c(OC)cccc2c1N1CCN(c2cc(F)ccc2OC)CC1
Output: 5.68

Input: Identify measured pIC50 corresponding to CCOC(=O)c1cnc2c(OC)cccc2c1-c1cnc(-c2ccccc2OC)c(OC)c1
Output: 6.46

Input: Identify measured pIC50 corresponding to CCOC(=O)c1cnc2c(OC)cccc2c1N1CCN(c2ccccc2OC)CC1
Output: 6.19

Input: Identify measured pIC50 corresponding to CCOC(=O)c1cnc2ccsc2c1N1CCN(c2ccccc2OC)CC1
Output: 5.35

Input: Identify measured pIC50 corresponding to CCOC(=O)c1cnc2c(OC)cccc2c1-c1ccc(-c2ccccc2OC)cn1
Output: 5.55

Input: Identify measured pIC50 corresponding to CCOC(=O)c1cnc2sccc2c1N1CCN(c2ccccc2OC)CC1
Output: 5.35

Input: Identify measured pIC50 corresponding to CCOC(=O)c1cnc2c(OC)cccc2c1-c1cnc(-c2ccccc2OC)nc1
Output: 5.62

Input: Identify measured pIC50 corresponding to CCOC(=O)c1cnc2c(OC)cccc2c1C1=CCN(c2ccccc2OC)CC1
Output: 5.44

Input: Identify measured pIC50 corresponding to CCOC(=O)c1cnc2c(OC)cccc2c1-c1cc(F)c(-c2ccccc2OC)nc1OC
Output: 5.68

Input: Identify measured pIC50 corresponding to CCOC(=O)c1cnc2c(OC)cccc2c1-c1ccc(-c2ccccc2OC)cc1
Output: 5.54

Input: Identify measured pIC50 corresponding to CCOC(=O)c1cnc2c(OC)cccc2c1N1CCN(c2ccccc2OC(C)C)CC1
Output: 5.64

Input: Identify measured pIC50 corresponding to CCOC(=O)c1cnc2c(OC)cccc2c1N1CCN(c2ccccc2SC)CC1
Output: 6.29

Input: Identify measured pIC50 corresponding to CCOC(=O)c1cnc2c(OC)cccc2c1N1CCN(c2ccccc2OC)CC1C (racemic)
Output: 5.82

Input: Identify measured pIC50 corresponding to CCOC(=O)c1cnc2c(OC)cc(OC)cc2c1-c1ccc(-c2ccccc2OCC)nc1
Output: 6.09

Input: Identify measured pIC50 corresponding to CCOC(=O)c1cnc2c(OC)cccc2c1N1CCN(c2ccccc2F)CC1
Output: 5.21

Input: Identify measured pIC50 corresponding to CCOC(=O)c1cnc2c(OC)cccc2c1-c1ccn(Cc2ccccc2OC)c1
Output: 5.92

Input: Identify measured pIC50 corresponding to CCOC(=O)c1cnc2c(OC)cccc2c1-c1ccc(-c2ccccc2SC)nc1
Output: 6.39

Input: Identify measured pIC50 corresponding to CCOC(=O)c1cnc2c(OC)cc(OC)cc2c1-c1ccc(-c2ccccc2OC)nc1
Output: 6.06

Input: Identify measured pIC50 corresponding to CCOC(=O)c1cnc2c(OC)cccc2c1N1CCN(c2ccccc2C#N)CC1
Output: 5.38
